- Protocol Text: Toxicity liver stage against HepG2, at 10uM
- Format: cell-based
- Parameters: test concentration 10 uM, cell line HepG2-A16-CD81EGFP
- Condition Description: human, HepG2-A16-CD81EGFP cells; read-out: INHIBITION
Catalogue of compounds with associated cytotoxicity at 10 µM
Recorded Metric: cytotoxicity at 10 µM (%)

INSERT INTO measurements (compound, recorded_metric, output_unit, meas_value) VALUES
  ('CCOCCC1(CNC(=O)c2ccncc2)CCC1', 'cytotoxicity at 10 µM', '%', 4.11),
  ('CC[C@H](C)[C@H](N)C(=O)Nc1nc(-c2cnc(N(C)C)nc2)cs1', 'cytotoxicity at 10 µM', '%', -9.44),
  ('CC(NC(=O)NCCCOc1ccccc1F)c1nncn1C (stereo not drawn)', 'cytotoxicity at 10 µM', '%', -8.77),
  ('CSCCNC(=O)C1CCC(=O)N(C2CCCC2)C1 (stereo not drawn)', 'cytotoxicity at 10 µM', '%', -3.75),
  ('COCCN(Cc1ccccn1)C(=O)Nc1cccnc1-n1cccn1', 'cytotoxicity at 10 µM', '%', 1.06),
  ('CC(C)c1cc(=O)[nH]c(C(C)(C)N)n1', 'cytotoxicity at 10 µM', '%', -1.05),
  ('CCn1cnnc1CNC(=O)N1CCN(C(C)C)CC1', 'cytotoxicity at 10 µM', '%', -18.1),
  ('Cc1nnsc1CN(C)C(=O)CN1CC2(CCNCC2)OC1=O', 'cytotoxicity at 10 µM', '%', 11.4),
  ('Cc1noc(C[C@@H]2COC[C@H]3CN(S(C)(=O)=O)C[C@@H]23)n1', 'cytotoxicity at 10 µM', '%', 12.2),
  ('CCC(=O)N1CCCC(c2cc(Nc3ncccn3)nc(C)n2)C1 (stereo not drawn)', 'cytotoxicity at 10 µM', '%', -3.48),
  ('CC(=O)c1c(F)cccc1NCC(O)C1CC1 (stereo not drawn)', 'cytotoxicity at 10 µM', '%', 13.4),
  ('CCN(C)C(=O)c1coc(COc2ccccc2)n1', 'cytotoxicity at 10 µM', '%', 3.36),
  ('Cc1nn(C)c(C)c1C1COCCN1c1ncncc1Br (stereo not drawn)', 'cytotoxicity at 10 µM', '%', -8.9),
  ('CCc1cc(N2CCCC(c3noc(CC)n3)C2)ncn1 (stereo not drawn)', 'cytotoxicity at 10 µM', '%', 9.74),
  ('CC(C)CNC(=O)N1CCC2(CCCO2)C1 (stereo not drawn)', 'cytotoxicity at 10 µM', '%', 12.9),
  ('CCCS(=O)(=O)N1C[C@@H](OCc2ccncc2)[C@H]2OCCC[C@H]21', 'cytotoxicity at 10 µM', '%', 5.56),
  ('O=C(NCCN1CCCCCC1=O)c1ccn(-c2ccc(F)cc2)n1', 'cytotoxicity at 10 µM', '%', -8.62),
  ('Cc1ccc(CN2CCC3(CCC3NC(=O)c3ccn(C)c3)CC2)s1 (stereo not drawn)', 'cytotoxicity at 10 µM', '%', -151),
  ('CCC(=O)N1CCCN(Cn2nc(C)c(Br)c2C)CC1', 'cytotoxicity at 10 µM', '%', 6.1),
  ('CN(C)CCn1c2c(ccc1=O)CCN(Cc1cnn(C)c1)CC2', 'cytotoxicity at 10 µM', '%', -2.65),
  ('Cc1ncc(CN2CCc3c(nc(-c4ccccn4)[nH]c3=O)C2)n1C', 'cytotoxicity at 10 µM', '%', -30.1),
  ('Cc1ccccc1C(C)N(C)Cc1nc2c(cnn2C)c(=O)[nH]1 (stereo not drawn)', 'cytotoxicity at 10 µM', '%', -6.69),
  ('OC(c1ccccc1)c1cn(C2CCN(Cc3nccs3)CC2)nn1 (stereo not drawn)', 'cytotoxicity at 10 µM', '%', 7.44),
  ('CN(C)c1cc2c(nn1)CCN(C(=O)Cc1ccc3c(c1)CCO3)C2', 'cytotoxicity at 10 µM', '%', 5.71),
  ('Cc1ccc(NC(=O)CNC(C)CN2CCOCC2)c(F)c1 (stereo not drawn)', 'cytotoxicity at 10 µM', '%', -51.8),
  ('Cc1nc(NC(=O)OC(C)(C)C)sc1C(N)=O', 'cytotoxicity at 10 µM', '%', -14.4),
  ('CS(=O)(=O)N1CCC(c2cncc(Cl)n2)CC1', 'cytotoxicity at 10 µM', '%', 16),
  ('CCCN1CCN(C(=O)c2cnccc2C)[C@H]2CS(=O)(=O)C[C@H]21', 'cytotoxicity at 10 µM', '%', -1.7),
  ('CCN(CC)CCNC(=O)c1cc(C(C)C)nc(N2CCCC2)n1', 'cytotoxicity at 10 µM', '%', -2.44),
  ('Cc1cccc(C(=O)N2CCn3c(CN4CCN(C)CC4)cnc3C2)n1', 'cytotoxicity at 10 µM', '%', -75.2),
  ('CCc1ccc(C(=O)NCC2CCCN2CC)o1 (stereo not drawn)', 'cytotoxicity at 10 µM', '%', 0.632),
  ('O=C1CCCc2nccc(-c3ccccc3)c21', 'cytotoxicity at 10 µM', '%', 3.15),
  ('CC(=O)Nc1ccc(C(=O)N2CCOc3nc(C)ccc32)cc1', 'cytotoxicity at 10 µM', '%', 2.81),
  ('CS(=O)(=O)c1cccc2c1CCCN2C(=O)Cc1cccc(F)c1', 'cytotoxicity at 10 µM', '%', 8.14),
  ('CC(C)(CO)Nc1c(NCc2ccncc2)c(=O)c1=O', 'cytotoxicity at 10 µM', '%', -3.97),
  ('Cc1nc(CN2C[C@H]3C[C@H](C(=O)NCC4CC4)N(C)[C@H]3C2)cs1', 'cytotoxicity at 10 µM', '%', -5.13),
  ('Cc1ccc(CN(C(=O)NCCNC(=O)c2cccnc2)C(C)C)o1', 'cytotoxicity at 10 µM', '%', -6.06),
  ('Cc1nc(NC2CCCC2)cc(C2CCN2c2ncccn2)n1 (stereo not drawn)', 'cytotoxicity at 10 µM', '%', -0.943),
  ('O=C(NCc1cc[nH]n1)NCC(c1ccco1)N1CCCC1 (stereo not drawn)', 'cytotoxicity at 10 µM', '%', 13.6),
  ('CCn1nc(C)c2ncnc(NCCCn3ccnc3)c21', 'cytotoxicity at 10 µM', '%', 10.3),
  ('Cn1ncc2c(N3CCC3)nc(-c3ccncc3)nc21', 'cytotoxicity at 10 µM', '%', 11.8),
  ('CNc1cc(C)nc(-c2cc(NC)nc3[nH]ccc23)n1', 'cytotoxicity at 10 µM', '%', -3.92),
  ('COc1nc2ccn(CCNc3cc(C)ccn3)c(=O)c2cc1C#N', 'cytotoxicity at 10 µM', '%', 11.7),
  ('O=C(NCCCO)c1nnsc1-c1ccc(Cl)cc1', 'cytotoxicity at 10 µM', '%', 4.62),
  ('c1cc(CN2CCC(c3ccncc3)CC2)cc(Cn2cccn2)c1', 'cytotoxicity at 10 µM', '%', -10.1),
  ('COCCN1CCN(C(=O)c2cc(C(C)C)on2)[C@H]2CS(=O)(=O)C[C@H]21', 'cytotoxicity at 10 µM', '%', -12),
  ('O=C(NCCOc1ncc(Cl)cc1Cl)c1ccoc1', 'cytotoxicity at 10 µM', '%', 0.191),
  ('Cc1ccc(CNC2(Cc3cc(CC(C)C)on3)COC2)o1', 'cytotoxicity at 10 µM', '%', -2.07);
